# System: PtELO6 (Δ6-elongase)
# assay_summary: PtELO6 expressed in yeast, feeding experiment
# experimental_context: fed to yeast with pYES2-PtELO6

>  <compound>
CC/C=C\C/C=C\C/C=C\CCCCCCCCCC(=O)O [20:3^Δ11,14,17]

>  <conversion of fatty acid fed>
not converted

$$$$
>  <compound>
CCCCCC=CCC=CCC=CCC=CCCCCCC(=O)O [22:4^Δ7,10,13,16, docosatetraenoic acid]

>  <conversion of fatty acid fed>
not converted

$$$$
>  <compound>
CCCCCCC=CCCCCCCCCCC(=O)O [18:1^Δ11]

>  <conversion of fatty acid fed>
not converted

$$$$
>  <compound>
CCCCC/C=C\C/C=C\C/C=C\CCCCCCC(=O)O [20:3^Δ8,11,14, dihomo-γ-linolenic acid]

>  <conversion of fatty acid fed>
not converted

$$$$

* * *

# Test system: TL16y2
# assay_summary: TL16y2 expressed in yeast, feeding experiments
# Format: cell-based, Thraustochytrium ssp.
# experimental_context: 250 μM fatty acid fed, in comparison with the control
Item-by-item account of % conversion rate
Only the number, expressed in %, is required.

Example cases with answers are listed next.
>  <compound>
CCCCC/C=C\C/C=C\C/C=C\C/C=C\CCCC(=O)O [20:4^Δ5,8,11,14, arachidonic acid]

>  <measured_on>
TL16y2

>  <measurement>
20.3

$$$$
>  <compound>
CCCCC/C=C\C/C=C\C/C=C\CCCCC(=O)O [18:3^Δ6,9,12, γ-linolenic acid]

>  <measured_on>
TL16y2

>  <measurement>
74.9

$$$$
>  <compound>
CC/C=C\C/C=C\C/C=C\C/C=C\CCCCC(=O)O [18:4^Δ6,9,12,15, stearidonic acid]

>  <measured_on>
TL16y2

>  <measurement>
79.4

$$$$

Ask: Query: % conversion rate; subject: CC/C=C\C/C=C\C/C=C\C/C=C\C/C=C\CCCC(=O)O [20:5^Δ5,8,11,14,17, eicosapentaenoic acid]
Result: 8

* * *

# System: ELO(Ci)
# assay_summary: ELO(Ci) expressed in yeast, conversion of starting materials
# Format: cell-based, Ciona intestinalis
# experimental_context: fed at in each case 250 μM
outcome_measure: Conversion of the starting materials by ELO(Ci) in % (%)
Number in %, nothing else.

>  <compound>
CCCCCCCCCCCCCCCC(=O)O

>  <measurement>
0

$$$$

Ask: Any idea what its Conversion of the starting materials by ELO(Ci) in % is? The molecule is `CC/C=C\C/C=C\C/C=C\CCCCCCCCCC(=O)O`
Result: 8

Ask: Also need `CCCCCC=CCC=CCC=CCC=CCCCCCC(=O)O` , thanks.
Result: 0

Ask: Try this molecule too: `CCCCC/C=C\C/C=C\C/C=C\CCCCCCC(=O)O`
Result: 10

Ask: Please give the result for `CCCCC/C=C\C/C=C\CC/C=C\CCCC(=O)O` too.
Result: 38

Ask: Same read-out for `CCCCCCCCCCCCCCCCCC(=O)O` ?
Result: 0

Ask: Thanks! And `CCCCC/C=C\C/C=C\C/C=C\C/C=C\CCCC(=O)O` ?
Result: 10
